# system-tested: CB1R (Mus musculus, UniProt P47746)
# Construct: crude membranes from mouse brain for CB1R; from tissue; host or cells: mouse brain, crude membranes
# Sequence (P47746 whole entry): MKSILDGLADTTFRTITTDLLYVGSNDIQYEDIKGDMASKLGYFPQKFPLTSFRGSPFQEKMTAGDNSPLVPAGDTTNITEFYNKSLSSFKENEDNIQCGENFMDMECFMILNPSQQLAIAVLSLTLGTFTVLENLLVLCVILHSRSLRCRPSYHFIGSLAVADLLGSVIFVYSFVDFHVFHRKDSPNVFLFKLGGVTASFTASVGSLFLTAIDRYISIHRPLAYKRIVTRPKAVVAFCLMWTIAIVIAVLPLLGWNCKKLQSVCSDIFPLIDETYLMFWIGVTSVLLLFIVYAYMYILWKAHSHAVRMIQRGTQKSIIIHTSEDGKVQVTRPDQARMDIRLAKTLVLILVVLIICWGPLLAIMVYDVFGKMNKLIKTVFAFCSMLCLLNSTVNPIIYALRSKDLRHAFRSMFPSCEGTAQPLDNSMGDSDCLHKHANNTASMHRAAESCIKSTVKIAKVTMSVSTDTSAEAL
# protocol-details: Radioligand binding assay, competition displacement of [3H]CP-55,940, CB1R
# stated-conditions: separated isomer RS; read-out: Ki (μM) RS
reported-property: Ki (µM)
I only need the number, in µM, no unit after it.

Ki reading for CC(C)C(NC(=O)c1ccco1)C(=O)NCC(c1ccccc1Cl)c1c[nH]c2ccccc12 (single isomer, unassigned) : 8.46

---

# system-tested: CB1R (Mus musculus)
# Construct: crude membranes from mouse brain for CB1R; from tissue; host or cells: mouse brain, crude membranes
# protocol-details: Radioligand binding assay, competition displacement of [3H]CP-55,940, CB1R
# stated-conditions: separated isomer RR; read-out: Ki (μM) RR
reported-property: Ki (µM)
I only need the number, in µM, no unit after it.

Ki reading for CC(C)C(NC(=O)c1ccco1)C(=O)NCC(c1ccccc1Cl)c1c[nH]c2ccccc12 (single isomer, unassigned) : 0.54

Provenance of the data: patent US20230172929A1
